Listing of entries alongside the reported IC50.
Biological target: 3-oxo-5-alpha-steroid 4-dehydrogenase 1 (Homo sapiens, UniProt P18405)
Sequence (P18405 whole entry): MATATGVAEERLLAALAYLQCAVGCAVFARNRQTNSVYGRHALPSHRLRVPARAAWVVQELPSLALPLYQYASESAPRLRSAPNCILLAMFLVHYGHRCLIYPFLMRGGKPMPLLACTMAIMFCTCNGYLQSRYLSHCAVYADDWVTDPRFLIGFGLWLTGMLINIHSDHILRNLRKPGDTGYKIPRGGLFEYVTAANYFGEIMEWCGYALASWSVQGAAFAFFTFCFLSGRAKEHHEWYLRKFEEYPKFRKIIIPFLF
Assay: Inhibition of recombinant human Steroid 5-alpha-reductase type I
Hi! Could you send only the number? It should be in nM, unit omitted.

{"COMPOUND": "C[C@]12C=CC(=O)NC1CCC1C2CC[C@]2(C)C(C(=O)Nc3ccccc3)CCC12 (some centres not stated)", "TEST TARGET": "3-oxo-5-alpha-steroid 4-dehydrogenase 1 (Homo sapiens, UniProt P18405)", "IC50 / nM": 20}
{"COMPOUND": "C[C@]12C=CC(=O)NC1CCC1C2CC[C@]2(C)C(C(=O)Nc3ccccc3C(=O)c3ccccc3)CCC12 (some centres not stated)", "TEST TARGET": "3-oxo-5-alpha-steroid 4-dehydrogenase 1 (Homo sapiens, UniProt P18405)", "IC50 / nM": 28.7}
{"COMPOUND": "C[C@]12C=CC(=O)NC1CCC1C2CC[C@]2(C)C(C(=O)Nc3ccc(N)cc3)CCC12 (some centres not stated)", "TEST TARGET": "3-oxo-5-alpha-steroid 4-dehydrogenase 1 (Homo sapiens, UniProt P18405)", "IC50 / nM": 120}
{"COMPOUND": "C[C@]12C=CC(=O)NC1CCC1C2CC[C@]2(C)C(C(=O)Nc3ccccc3O)CCC12 (some centres not stated)", "TEST TARGET": "3-oxo-5-alpha-steroid 4-dehydrogenase 1 (Homo sapiens, UniProt P18405)", "IC50 / nM": 12.9}
{"COMPOUND": "C[C@]12C=CC(=O)NC1CCC1C2CC[C@]2(C)C(C(=O)Nc3ccccc3N)CCC12 (some centres not stated)", "TEST TARGET": "3-oxo-5-alpha-steroid 4-dehydrogenase 1 (Homo sapiens, UniProt P18405)", "IC50 / nM": 130}
{"COMPOUND": "C[C@]12C=CC(=O)NC1CCC1C2CC[C@]2(C)C(C(=O)Nc3cc(C(F)(F)F)ccc3C(F)(F)F)CCC12 (some centres not stated)", "TEST TARGET": "3-oxo-5-alpha-steroid 4-dehydrogenase 1 (Homo sapiens, UniProt P18405)", "IC50 / nM": 5.8}

Challenge: Would you mind telling me what IC50 value was observed for C[C@]12C=CC(=O)NC1CCC1C2CC[C@]2(C)C(C(=O)Nc3cccc(F)c3)CCC12 (some centres not stated) ?
Response given: 23
